test: Serum fatty acid metabolomics (UPLC-MS/MS), feeding study; settings: bottlenose dolphin (Tursiops truncatus), in vivo, 18 weeks
Measured serum concentration 18 wk / 0 wk, listed per entry for reference.
Please reply with the value in numeric form only.

Examples with their reported serum concentration 18 wk / 0 wk follow.
[
  {
    "Molecule": "CCCCC/C=C\\C/C=C\\CCCCCCCC(=O)O [linoleate (18:2n6), linoleate]",
    "serum concentration 18 wk / 0 wk": 0.76
  },
  {
    "Molecule": "CC/C=C\\C/C=C\\C/C=C\\C/C=C\\C/C=C\\CCCC(=O)O [eicosapentaenoate (EPA; 20:5n3), eicosapentaenoate]",
    "serum concentration 18 wk / 0 wk": 0.88
  },
  {
    "Molecule": "CCCCCCCCC(=O)O [perlargonate (9:0), nonanoic acid]",
    "serum concentration 18 wk / 0 wk": 1.56
  }
]

Now examine the next entry.
## Task Provide only the value of recorded serum concentration 18 wk / 0 wk for CCCCC/C=C\C/C=C\C/C=C\C/C=C\CCCC(=O)O
## Result 1.5

---

assay: Serum fatty acid metabolomics (UPLC-MS/MS), feeding study; details: Group A dolphins; modified diet; proportional to value at outset of study
Binary call on serum concentration 12 wk / 0 wk: met from 1 upward, not met beneath that.

[
  {
    "Compound": "CCCCCCCCCCCCCC(=O)O [myristate (14:0), myristate]",
    "Class name": "not met"
  },
  {
    "Compound": "CCCCCCCCCCCCCCCCC(=O)O",
    "Class name": "met"
  },
  {
    "Compound": "CC/C=C\\C/C=C\\C/C=C\\C/C=C\\C/C=C\\C/C=C\\CCC(=O)O [docosahexaenoate (DHA; 22:6n3), docosahexaenoate]",
    "Class name": "met"
  }
]

// next entry
## Task Reported serum concentration 12 wk / 0 wk reaches at least 1 for CCCCCCCC(=O)O [caprylate (8:0), caprylate] ?
## Result met

---

experiment: Serum fatty acid metabolomics (UPLC-MS/MS), feeding study; settings: Group A dolphins; modified diet; proportional to value at outset of study
Measured serum concentration 6 wk / 0 wk, listed per entry for reference.
Please reply with the value in numeric form only.

Examples with their reported serum concentration 6 wk / 0 wk follow.
[
  {
    "Compound": "CCCCCCCCCCCCCCCCC(=O)O [Heptadecanoic acid, heptadecanoic acid]",
    "serum concentration 6 wk / 0 wk": 1.25
  },
  {
    "Compound": "CC/C=C\\C/C=C\\C/C=C\\C/C=C\\C/C=C\\C/C=C\\CCC(=O)O [docosahexaenoate (DHA; 22:6n3), docosahexaenoate]",
    "serum concentration 6 wk / 0 wk": 1.05
  },
  {
    "Compound": "CCCCCCCC(=O)O [caprylate (8:0), caprylate]",
    "serum concentration 6 wk / 0 wk": 1.1
  },
  {
    "Compound": "CCCCCCC(=O)O [heptanoate (7:0), heptanoate]",
    "serum concentration 6 wk / 0 wk": 1.42
  },
  {
    "Compound": "CCCCCCCCCCCCCC(=O)O [myristate (14:0), myristate]",
    "serum concentration 6 wk / 0 wk": 0.8
  }
]

Now examine the next entry.
## Task Provide only the value of recorded serum concentration 6 wk / 0 wk for CCCCCC(=O)O [caproate (6:0), caproate]
## Result 0.98

---

experiment: Serum fatty acid metabolomics (UPLC-MS/MS), feeding study; conditions: in vivo
Measured serum concentration 24 wk / 0 wk, listed per entry for reference.
Please reply with the value in numeric form only.

Examples with their reported serum concentration 24 wk / 0 wk follow.
[
  {
    "Compound": "CC/C=C\\C/C=C\\C/C=C\\C/C=C\\CCCCC(=O)O [stearidonate (18:4n3), stearidonate]",
    "Quantity name": "serum concentration 24 wk / 0 wk",
    "Quantitative readout": 0.58
  },
  {
    "Compound": "CCCCCCCC/C=C\\CCCCCCCCCCCC(=O)O [erucate (22:ln9), erucate]",
    "Quantity name": "serum concentration 24 wk / 0 wk",
    "Quantitative readout": 0.45
  },
  {
    "Compound": "CCCCC/C=C\\C/C=C\\C/C=C\\C/C=C\\CCCCCC(=O)O [adrenate (22:4n6), all-cis-7,10,13,16-docosatetraenoic acid]",
    "Quantity name": "serum concentration 24 wk / 0 wk",
    "Quantitative readout": 1.73
  },
  {
    "Compound": "CCCCC/C=C\\C/C=C\\CCCCCCCCCC(=O)O [dihomo-linoleate (20:2n6), dihomo-linoleate]",
    "Quantity name": "serum concentration 24 wk / 0 wk",
    "Quantitative readout": 0.73
  },
  {
    "Compound": "C=CCCCCCCCCC(=O)O [10-undecenoate (1 l:ln1), 10-undecenoate]",
    "Quantity name": "serum concentration 24 wk / 0 wk",
    "Quantitative readout": 1.75
  }
]

## Task Provide only the value of recorded serum concentration 24 wk / 0 wk for CCCCCCCCCCCCCCC(=O)O [pentadecanoate (15:0), pentadecanoate]
## Result 0.97

## Task Provide only the value of recorded serum concentration 24 wk / 0 wk for CCCCCCCC/C=C\CCCCCCCCCCCCCC(=O)O [nervonate (24:ln9)*, nervonate]
## Result 0.62

## Task Provide only the value of recorded serum concentration 24 wk / 0 wk for CCCCC/C=C\C/C=C\C/C=C\C/C=C\C/C=C\CCC(=O)O [docosapentaenoate (n6 DPA; 22:5n6)]
## Result 2.09
